# credit: the supplement of paper PMC10567573

B1: TFE3 (parent)
chain: FPSDHLGDLGDPFHLGLEDILMEE

- Variants of: B1
- Measurement description: protein stability index of a GFP-peptide fusion (GPS, HEK-293T) (PSI 1-6); higher = more stable;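 also: lentivirally expressed fusions sorted by FACS into six bins by GFP to DsRed ratio, PSI derived from sequencing read proportions per bin multiplied by bin number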
- Measurement setup: c terminus: a fixed tail appended
protein stability index values by entry
Value kind: protein stability index

- D19L: 2.03
- G7L: 3.41
- G16T: 3.1
- L9N: 4.32
- E18I: 2.01
- P12L: 2.81
- M22K: 3.98
- P12S: 4.84
- L17G: 3.7
- F13I: 4.34
- H5C: 3.73
- H5A: 4.06
- D4Y: 2.75
- L17P: 3.67
- D4H: 1.91
- L9C: 3.5
- L17M: 2.91
- L21V: 3.4
- P2F: 2.83
- H14R: 3.52
- M22N: 4.04
- D19F: 2.09
